tested on: biotinyl-Val-oxazolone; assay: self-aminoacylation, catalytic enhancement (BVO) (fold over background); higher = more active; k-Seq, kA / k0A0; sequences stand for … in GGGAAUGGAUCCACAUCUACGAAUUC…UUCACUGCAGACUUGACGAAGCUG
Variants at the floor of the assay were thinned out.
Reported Endpoint: self-aminoacylation

>>> endpoint_result("AUUCACCUAGAUCAUGGGGUG [Fam2.2 aminoacylation ribozyme variant]")
2.61
>>> endpoint_result("AUUAGCCUGAUCAUCGAGUGA [Fam2.1 aminoacylation ribozyme variant]")
4.4
>>> endpoint_result("AUUCACCUAGGUCAUCCGGUG [Fam2.2 aminoacylation ribozyme variant]")
4.69
>>> endpoint_result("AUUCCCCUAGGUAAUCGGGUG [Fam2.2 aminoacylation ribozyme variant]")
6.58
>>> endpoint_result("CUUCACCUAGGUCAUCGCGUG [Fam2.2 aminoacylation ribozyme variant]")
8.89
>>> endpoint_result("ACUACCCUGGUCAUCAAGUGA [Fam2.1 aminoacylation ribozyme variant]")
1.67
>>> endpoint_result("UAGUUUGCUAGUAGUCGCAAG [Fam3.1 aminoacylation ribozyme variant]")
0.974
>>> endpoint_result("GUACUUCACACAAUCGGUCUG [Fam1A.1 aminoacylation ribozyme variant]")
1.3
>>> endpoint_result("AUUCACCUCGGUCAACGGGUG [Fam2.2 aminoacylation ribozyme variant]")
2.82

====

Examples of sequences with documented self-aminoacylation follow.
system: biotinyl-Leu-oxazolone; experiment: self-aminoacylation, catalytic enhancement (BLO) (fold over background); higher = more active; k-Seq, kA / k0A0; sequences stand for … in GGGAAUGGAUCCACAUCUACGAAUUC…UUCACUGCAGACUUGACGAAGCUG
This sample holds only a part of the variants without activity.
Reported Endpoint: self-aminoacylation

>>> endpoint_result("UUACUUCAAAAAAUCGGUCUG [Fam1A.1 aminoacylation ribozyme variant]")
1.29
>>> endpoint_result("AAGUUUGCUUAUACUCGCAAG [Fam3.1 aminoacylation ribozyme variant]")
0.66
>>> endpoint_result("CCACCCUUCAAGCAAGCGGUC [Fam1B.1 aminoacylation ribozyme variant]")
1.36
>>> endpoint_result("AUUACCCAGGUCAUCGCGUGA [Fam2.1 aminoacylation ribozyme variant]")
22.9
>>> endpoint_result("CCAGACUUCAAGCAAUCGUUC [Fam1B.1 aminoacylation ribozyme variant]")
0.764
>>> endpoint_result("CCACAUUUCACGCAAUCGGUC [Fam1B.1 aminoacylation ribozyme variant]")
2.68
>>> endpoint_result("AAGUUGGCUCAUAGUCGCAAG [Fam3.1 aminoacylation ribozyme variant]")
1.99
>>> endpoint_result("CUAAUGCAAACAAUCGGUCUG [Fam1A.1 aminoacylation ribozyme variant]")
0.55

====

tested on: biotinyl-Val-oxazolone; assay: self-aminoacylation, catalytic enhancement (BVO) (fold over background); higher = more active; k-Seq, kA / k0A0; sequences stand for … in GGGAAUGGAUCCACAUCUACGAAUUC…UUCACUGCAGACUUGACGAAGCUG
Variants at the floor of the assay were thinned out.
Each entry below carries its reported self-aminoacylation.
Reported Endpoint: self-aminoacylation

>>> endpoint_result("AUUCACUUAGGUCAUCGGGCG [Fam2.2 aminoacylation ribozyme variant]")
3.17
>>> endpoint_result("UUUCACGUAGGUCAUCGGGUG [Fam2.2 aminoacylation ribozyme variant]")
4.25
>>> endpoint_result("GUUACCCUGGUCAUCGCGUGA [Fam2.1 aminoacylation ribozyme variant]")
14.8
>>> endpoint_result("AUUCAGCUAGGUCAUGGGGUG [Fam2.2 aminoacylation ribozyme variant]")
2.98
>>> endpoint_result("AUUACCCUGGUCCUCGCGUGA [Fam2.1 aminoacylation ribozyme variant]")
7.66
>>> endpoint_result("AUUACCCUAGUCAUCAAGUGA [Fam2.1 aminoacylation ribozyme variant]")
2.58
>>> endpoint_result("AUUACACUGGUCACCGAGUGA [Fam2.1 aminoacylation ribozyme variant]")
2.91
>>> endpoint_result("CUACUUCAAACAUACGGUCUG [Fam1A.1 aminoacylation ribozyme variant]")
0.763
>>> endpoint_result("AAGUUUGAUAGUAGUCGCAAG [Fam3.1 aminoacylation ribozyme variant]")
0.979
>>> endpoint_result("AGUACCCUAGUCAUCGAGUGA [Fam2.1 aminoacylation ribozyme variant]")
3.13
>>> endpoint_result("AUUGACCUAGGUCAUCGGGGG [Fam2.2 aminoacylation ribozyme variant]")
3.04
>>> endpoint_result("AAGUUUGCUAAUAGUCGUUAG [Fam3.1 aminoacylation ribozyme variant]")
1.07
>>> endpoint_result("CUACUUCAAACGAUCGGGCUG [Fam1A.1 aminoacylation ribozyme variant]")
1.45
>>> endpoint_result("CUACUUCAAACAAUCGUUAUG [Fam1A.1 aminoacylation ribozyme variant]")
0.627
>>> endpoint_result("AAUACCCUGGUCAUCGGGUGA [Fam2.1 aminoacylation ribozyme variant]")
7.46
>>> endpoint_result("AAGUUUGCUAAUAGUCACAAU [Fam3.1 aminoacylation ribozyme variant]")
1.19
>>> endpoint_result("AUUACCCUGGUCAUCUAGUGU [Fam2.1 aminoacylation ribozyme variant]")
2.48
>>> endpoint_result("AUUCACGUAGGUCAACGGGUG [Fam2.2 aminoacylation ribozyme variant]")
3.15
>>> endpoint_result("CUACUUCUAACAAUCGCUCUG [Fam1A.1 aminoacylation ribozyme variant]")
0.559
>>> endpoint_result("CAGUUAGCUAAUAGUCGCAAG [Fam3.1 aminoacylation ribozyme variant]")
1.32
>>> endpoint_result("AUGACCCUGGUCAUCGAGAGA [Fam2.1 aminoacylation ribozyme variant]")
1.34
>>> endpoint_result("AUUCACCUAGGUCCUCGGGUC [Fam2.2 aminoacylation ribozyme variant]")
1.34
>>> endpoint_result("AUUCACCUAGGUCGUCGGGUG [Fam2.2 aminoacylation ribozyme variant]")
1.77
>>> endpoint_result("CUGCUUCAAACAUUCGGUCUG [Fam1A.1 aminoacylation ribozyme variant]")
1.62
>>> endpoint_result("CUACUACUAACAAUCGGUCUG [Fam1A.1 aminoacylation ribozyme variant]")
0.673
>>> endpoint_result("AGUACCCUGGUCAACGAGUGA [Fam2.1 aminoacylation ribozyme variant]")
2.63
>>> endpoint_result("AUGACCCUGGUCAGCGAGUGA [Fam2.1 aminoacylation ribozyme variant]")
2.94
>>> endpoint_result("ACUACCUUGGUCAUCGAGUGA [Fam2.1 aminoacylation ribozyme variant]")
3.23
>>> endpoint_result("CAACACUUCAAGCAAUCCGUC [Fam1B.1 aminoacylation ribozyme variant]")
1.31
>>> endpoint_result("CCACUUCUAACAAUCGGUCUG [Fam1A.1 aminoacylation ribozyme variant]")
0.897
>>> endpoint_result("AUUACCAUGGUCAUCGGGUGA [Fam2.1 aminoacylation ribozyme variant]")
7.28
>>> endpoint_result("AUUACCCCGUUCAUCGAGUGA [Fam2.1 aminoacylation ribozyme variant]")
2.77
>>> endpoint_result("CUUCACCUAUGUCAUCGGGUG [Fam2.2 aminoacylation ribozyme variant]")
2.83
>>> endpoint_result("AUUCACCUAGGUCAUCCGGCG [Fam2.2 aminoacylation ribozyme variant]")
4.01
>>> endpoint_result("GUUACCCUGGUCAUCGGGUGA [Fam2.1 aminoacylation ribozyme variant]")
36.7

All values here come from the supplement of paper PMC9233669.
